Test system: LOU-NH91
Experiment: relative viability (nuclei count vs DMSO), 5 days (fraction); higher = more cells survive
Settings: first compound 8 µM
quantity kind: relative viability
Give the value as a plain number.

Sample O=c1[nH]c2ccccc2n1C1CCN(CCCC(c2ccc(F)cc2)c2ccc(F)cc2)CC1 [Pimozide] + CC(=O)Nc1cccc(-n2c(=O)n(C3CC3)c(=O)c3c(Nc4ccc(I)cc4F)n(C)c(=O)c(C)c32)c1 [Trametinib] (partner 0.02 µM) ; relative viability observed: 0.819

Sample O=c1[nH]c2ccccc2n1C1CCN(CCCC(c2ccc(F)cc2)c2ccc(F)cc2)CC1 [Pimozide] + O=C(CCCCCCC(=O)Nc1ccccc1)NO [Vorinostat] (partner 1 µM) ; relative viability observed: 0.872

Sample O=c1[nH]c2ccccc2n1C1CCN(CCCC(c2ccc(F)cc2)c2ccc(F)cc2)CC1 [Pimozide] + C[C@]1(O)C[C@@H](c2nc(-c3ccc4ccc(-c5ccccc5)nc4c3)c3c(N)nccn32)C1 [Linsitinib] (partner 1 µM) ; relative viability observed: 0.959

Sample O=c1[nH]c2ccccc2n1C1CCN(CCCC(c2ccc(F)cc2)c2ccc(F)cc2)CC1 [Pimozide] + Cc1cc(Nc2cc(N3CCN(C)CC3)nc(Sc3ccc(NC(=O)C4CC4)cc3)n2)n[nH]1 [Tozasertib] (partner 0.1 µM) ; relative viability observed: 0.652

Sample O=c1[nH]c2ccccc2n1C1CCN(CCCC(c2ccc(F)cc2)c2ccc(F)cc2)CC1 [Pimozide] + Cc1nc(NC(=O)N2CCC[C@H]2C(N)=O)sc1-c1ccnc(C(C)(C)C(F)(F)F)c1 [Alpelisib] (partner 2 µM) ; relative viability observed: 0.7

Sample O=c1[nH]c2ccccc2n1C1CCN(CCCC(c2ccc(F)cc2)c2ccc(F)cc2)CC1 [Pimozide] + CC(C)C[C@H](NC(=O)[C@H](Cc1ccccc1)NC(=O)c1cnccn1)B(O)O [Bortezomib] (partner 0.002 µM) ; relative viability observed: 0.479
